# study system: Cytochrome P450 1A2 (Homo sapiens)
# protocol: Cytochrome P450 Family 1 Subfamily A Member 2 (CYP1A2) small molecule antagonists: luciferase reporter qHTS assay (AID 1671199); note: potency is the fitted concentration of half-maximal effect; nearly all actives have a fitted effect of over 50% in size
# condition info: P450-Glo CYP1A2 enzyme, luciferin luminescence, 1 h; series mostly up to 53 µM
Inconclusive results are not listed. Active and inactive are the calls of the source. Calls come from the whole dose curve; as a rule, active = well fitted inhibition curve with a large enough effect in the repeat runs; inconclusive = weak or mixed curves; inactive = no such curve, though single readings can be large or run the other way.
reported endpoint: Potency

// solved cases for Potency follow
CCCCCCCCCOC(=O)c1ccc(O)cc1
27.9 µM (active)
CCCCCCCCn1sc(Cl)c(Cl)c1=O
11.2 µM (active)

Query: Specify the recorded Potency for `[Cl][Bi]([Cl])([c]1ccccc1)([c]1ccccc1)[c]1ccccc1` , system: Cytochrome P450 1A2 (Homo sapiens).
Result: 19.9 µM (active)
